system-under-test: HCV NS3/4A protease D168A variant (Hepatitis C virus genotype 1a, UniProt P27958, C1185S/D1194A)
Construct: His-tag (cleaved yes); made in house; host or cells: Escherichia coli BL21(DE3), PET28a vector
Sequence (P27958 1027-1208 C1185S/D1194A): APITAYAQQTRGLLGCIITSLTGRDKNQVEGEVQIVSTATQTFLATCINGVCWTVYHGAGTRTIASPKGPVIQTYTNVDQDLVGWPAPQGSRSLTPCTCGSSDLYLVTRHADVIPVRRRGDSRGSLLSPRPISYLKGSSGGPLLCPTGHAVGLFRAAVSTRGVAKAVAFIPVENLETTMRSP
test-name: biochemical
Format: biochemical
measured-metric: Ki (nM)

>>> result("COc1ccc2nc(C(F)(F)F)c(O[C@@H]3C[C@H]4C(=O)N[C@]5(C(=O)NS(=O)(=O)C6(C)CC6)C[C@H]5/C=C\\CCCCC[C@H](NC(=O)OCC5(C(F)(F)F)CC5)C(=O)N4C3)nc2c1")
39.5
>>> result("COc1ccc2nc(C(F)(F)F)c(O[C@@H]3C[C@H]4C(=O)N[C@]5(C(=O)NS(=O)(=O)C6(C)CC6)C[C@H]5/C=C\\CCCCC[C@H](NC(=O)O[C@H](C)C(F)(F)F)C(=O)N4C3)nc2c1")
17
>>> result("COc1ccc2nc(C(F)(F)F)c(O[C@@H]3C[C@H]4C(=O)N[C@]5(C(=O)NS(=O)(=O)C6(C)CC6)C[C@H]5/C=C\\CCCCC[C@H](NC(=O)OC5CCC5)C(=O)N4C3)nc2c1")
29.5
